- target_or_test_system: T1, HLA-DR13 molecule (DRB1*1301) (human)
- T1 chain 1: not shown
- T1 chain 2: not shown
- test_description: competitive ELISA, tracer B1 21-36
No end group written: not given here.
parameter_measured: pIC50
Numbers only, as −log10 of the molar value.

Name the reported pIC50 value associated with the binder TERVRLVTRHIYNREE (not fully specified) [B1 21-36 peptide (nonbiotinylated)]
6.22
